- experimental target: UniProt:P07602
- Sequence (P07602 195-273): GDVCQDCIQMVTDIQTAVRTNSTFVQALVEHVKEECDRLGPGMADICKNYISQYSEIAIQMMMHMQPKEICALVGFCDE
- assay notes: tyrosine fluorescence quenching titration
- Format: binding
measured parameter: pKd
Answer as the number alone; pKd is minus log10 of concentration in mol/L.

// query Entry CC1=C(/C=C/C(C)=C/C=C/C(C)=C/c2cc(/C=C/C=C(C)/C=C/C3=C(C)CCCC3(C)C)cc[n+]2CCO)C(C)(C)CCC1 [A2E] has what pKd?
// result 4.60
